These data points were gathered from ChEMBL document CHEMBL3763021.

experiment: Oral bioavailability in Sprague-Dawley rat at 5 mg/kg; format: ADME, organism-based; conditions: in vivo
assay endpoint: bioavailability (%)
Number in %, nothing else.

The examples below pair each entry with its known result.
1. Cc1ccc(CN2CCOCC2)cc1NC(=O)c1ccc(Nc2nccc(-c3ccc(OC(F)(F)F)cc3)n2)cc1 42
2. Cc1ccc(CN2CCOCC2)cc1NC(=O)c1ccc(Nc2ncc(F)c(-c3ccc(OC(F)(F)F)cc3)n2)cc1 37.2

Now take the following compound into account.
-- ask // bioavailability lookup, key: `Cc1c(C(=O)Nc2ccc(N3C[C@@H](C)O[C@@H](C)C3)nc2)cccc1-c1ccc(OC(F)(F)F)cc1`
-- reply 80.6

###

assay: Half life in Sprague-Dawley rat at 1 mg/kg, iv by LC/MS/MS analysis; assay type: ADME, organism-based; details: in vivo
Give condition met when the value for half-life is at least 5 h. Give condition not met when it is less.

1. O=C(Nc1cccc(CN2CCOCC2)c1)c1ccc(Nc2nccc(-c3ccc(OC(F)(F)F)cc3)n2)cc1 condition not met
2. Cc1c(C(=O)Nc2ccc(N3C[C@@H](C)O[C@@H](C)C3)nc2)cccc1-c1ccc(OC(F)(F)F)cc1 condition not met
3. Cc1ccc(CN2CCOCC2)cc1NC(=O)c1ccc(Nc2ncc(F)c(-c3ccc(OC(F)(F)F)cc3)n2)nc1 condition not met
4. Cc1ccc(CN2CCOCC2)cc1NC(=O)c1ccc(Nc2ncc(F)c(-c3ccc(OC(F)(F)F)cc3)n2)cn1 condition met

Kindly consider the entry below.
-- ask Given the entry `Cc1ccc(CN2CCOCC2)cc1NC(=O)c1ccc(Nc2ncc(F)c(-c3ccc(OC(F)(F)F)cc3)n2)cc1` , answer whether its half-life meets or surpasses 5 h.
-- reply condition met

###

experiment: Mean resident time (0 to t) in Sprague-Dawley rat at 1 mg/kg, iv by LC/MS/MS analysis; assay type: ADME, organism-based; conditions: in vivo
Output True for records whose MRT last is lower than 2 h, False for records at or above 2 h.

Before answering, review these 3 worked examples.
1. Cc1ccc(CN2CCOCC2)cc1NC(=O)c1ccc(Nc2ncc(F)c(-c3ccc(OC(F)(F)F)cc3)n2)cc1 False
2. Cc1ccc(CN2CCOCC2)cc1NC(=O)c1ccc(Nc2nccc(-c3ccc(OC(F)(F)F)cc3)n2)cc1 False
3. Cc1c(C(=O)Nc2ccc(N3C[C@@H](C)O[C@@H](C)C3)nc2)cccc1-c1ccc(OC(F)(F)F)cc1 True

-- ask Below 2 h on MRT last? Entry `O=C(Nc1cccc(CN2CCOCC2)c1)c1ccc(Nc2nccc(-c3ccc(OC(F)(F)F)cc3)n2)cc1`
-- reply True

-- ask Below 2 h on MRT last? Entry `Cc1ccc(CN2CCOCC2)cc1NC(=O)c1ccc(Nc2ncc(F)c(-c3ccc(OC(F)(F)F)cc3)n2)cn1`
-- reply False

###

experiment: Cmax in Sprague-Dawley rat at 1 mg/kg, iv by LC/MS/MS analysis; assay type: ADME, organism-based; design: dose 1 mg/kg, route intravenous; settings: in vivo
assay endpoint: Cmax (ng/mL)
Number in ng/mL, nothing else.

1) Cc1ccc(CN2CCOCC2)cc1NC(=O)c1ccc(Nc2ncc(F)c(-c3ccc(OC(F)(F)F)cc3)n2)cc1 1010
2) Cc1c(C(=O)Nc2ccc(N3C[C@@H](C)O[C@@H](C)C3)nc2)cccc1-c1ccc(OC(F)(F)F)cc1 1930
3) Cc1ccc(CN2CCOCC2)cc1NC(=O)c1ccc(Nc2ncc(F)c(-c3ccc(OC(F)(F)F)cc3)n2)cn1 3140

-- ask // Cmax lookup, key: `Cc1ccc(CN2CCOCC2)cc1NC(=O)c1ccc(Nc2ncc(F)c(-c3ccc(OC(F)(F)F)cc3)n2)nc1`
-- reply 770

-- ask // Cmax lookup, key: `O=C(Nc1cccc(CN2CCOCC2)c1)c1ccc(Nc2nccc(-c3ccc(OC(F)(F)F)cc3)n2)cc1`
-- reply 915

-- ask // Cmax lookup, key: `Cc1ccc(CN2CCOCC2)cc1NC(=O)c1ccc(Nc2nccc(-c3ccc(OC(F)(F)F)cc3)n2)cc1`
-- reply 1200
